# System: CHL-1 (Melanoma)
# METHOD SUMMARY: combination Emax (second highest fraction inhibited in the dose matrix, 72 h); higher = more inhibition; extreme values may be limits of the assay
Please note: fulfilled applies when combination Emax is 0.4 or greater, and not fulfilled applies otherwise.

Query block: Could you tell me if the measured combination Emax of CC1(C)CCC(CN2CCN(c3ccc(C(=O)NS(=O)(=O)c4ccc(NCC5CCOCC5)c([N+](=O)[O-])c4)c(Oc4cnc5[nH]ccc5c4)c3)CC2)=C(c2ccc(Cl)cc2)C1 [Venetoclax] + CN(C)CCCOc1ccc(-c2ccc3ncc4c(c3c2)n(C2CCOCC2)c(=O)n4C)cn1 [AZD0156] (first compound max 1 µM, 7x7, partner max 1 µM) reaches 0.4 or more?
Result block: not fulfilled

Query block: Could you tell me if the measured combination Emax of COc1cccc(OCCCN)c1-c1cc(Nc2cnc(C#N)cn2)n[nH]1 [Prexasertib] + C=CCn1c(=O)c2cnc(Nc3ccc(N4CCN(C)CC4)cc3)nc2n1-c1cccc(C(C)(C)O)n1 [AZD1775] (first compound max 1 µM, partner max 1 µM) reaches 0.4 or more?
Result block: fulfilled

Query block: Could you tell me if the measured combination Emax of Cc1cc2ncnn2cc1Nc1ncc2c(n1)n(C1CCOCC1)c(=O)n2C [AZD7648] + C[C@@H]1COCCN1C2=NC(=NC(=C2)C3(CC3)[S@](=N)(=O)C)C4=C5C=CNC5=NC=C4 [AZD6738] (first compound max 10 µM, 7x7, partner max 10 µM) reaches 0.4 or more?
Result block: fulfilled

Query block: Could you tell me if the measured combination Emax of NC1(C(=O)N[C@@H](CCO)c2ccc(Cl)cc2)CCN(c2ncnc3[nH]ccc23)CC1 [Capivasertib] + Cn1cnc2c(F)c(Nc3ccc(Br)cc3Cl)c(C(=O)NOCCO)cc21 [Selumetinib] (first compound max 10 µM, 7x7, partner max 10 µM) reaches 0.4 or more?
Result block: not fulfilled

Query block: Could you tell me if the measured combination Emax of O=C(c1cc(Cc2n[nH]c(=O)c3ccccc23)ccc1F)N1CCN(C(=O)C2CC2)CC1 [Olaparib] + CC1(C)CCC(CN2CCN(c3ccc(C(=O)NS(=O)(=O)c4ccc(NCC5CCOCC5)c([N+](=O)[O-])c4)c(Oc4cnc5[nH]ccc5c4)c3)CC2)=C(c2ccc(Cl)cc2)C1 [Venetoclax] (first compound max 10 µM, 7x7, partner max 1 µM) reaches 0.4 or more?
Result block: not fulfilled

Query block: Could you tell me if the measured combination Emax of Cc1c2c(nn1C)CSCc1cc(n(C)n1)CSc1cc(c3ccccc3c1)OCCCc1c(C(=O)O)n(C)c3c-2c(Cl)ccc13 [AZD5991] + Cc1cc2ncnn2cc1Nc1ncc2c(n1)n(C1CCOCC1)c(=O)n2C [AZD7648] (first compound max 1 µM, 7x7, partner max 10 µM) reaches 0.4 or more?
Result block: not fulfilled

Query block: Could you tell me if the measured combination Emax of Cc1c2c(nn1C)CSCc1cc(n(C)n1)CSc1cc(c3ccccc3c1)OCCCc1c(C(=O)O)n(C)c3c-2c(Cl)ccc13 [AZD5991] + CC(=O)O[C@H]1C(=O)[C@@]2(C)[C@H]([C@H](OC(=O)c3ccccc3)[C@]3(O)C[C@H](OC(=O)[C@H](O)[C@@H](NC(=O)c4ccccc4)c4ccccc4)C(C)=C1C3(C)C)[C@]1(OC(C)=O)CO[C@@H]1C[C@@H]2O [Paclitaxel] (first compound max 1 µM, 7x7, partner max 3 µM) reaches 0.4 or more?
Result block: fulfilled

Query block: Could you tell me if the measured combination Emax of CC(=O)c1c(C)c2cnc(Nc3ccc(N4CCNCC4)cn3)nc2n(C2CCCC2)c1=O [Palbociclib] + Cc1c2c(nn1C)CSCc1cc(n(C)n1)CSc1cc(c3ccccc3c1)OCCCc1c(C(=O)O)n(C)c3c-2c(Cl)ccc13 [AZD5991] (first compound max 10 µM, 7x7, partner max 1 µM) reaches 0.4 or more?
Result block: fulfilled

Query block: Could you tell me if the measured combination Emax of Cc1c2c(nn1C)CSCc1cc(n(C)n1)CSc1cc(c3ccccc3c1)OCCCc1c(C(=O)O)n(C)c3c-2c(Cl)ccc13 [AZD5991] + CS(=O)(=O)CCNCc1ccc(-c2ccc3ncnc(Nc4ccc(OCc5cccc(F)c5)c(Cl)c4)c3c2)o1 [Lapatinib] (first compound max 1 µM, 7x7, partner max 10 µM) reaches 0.4 or more?
Result block: fulfilled

The measured values listed here are drawn from the supplement of paper PMC11061612.
